Source of measurements: patent US10287267B2

Would you kindly list log10 EC50 for each of these molecules?
TARGET: recombinant GSK3β kinase (Homo sapiens (Human), UniProt P49841)
Sequence (P49841 whole entry): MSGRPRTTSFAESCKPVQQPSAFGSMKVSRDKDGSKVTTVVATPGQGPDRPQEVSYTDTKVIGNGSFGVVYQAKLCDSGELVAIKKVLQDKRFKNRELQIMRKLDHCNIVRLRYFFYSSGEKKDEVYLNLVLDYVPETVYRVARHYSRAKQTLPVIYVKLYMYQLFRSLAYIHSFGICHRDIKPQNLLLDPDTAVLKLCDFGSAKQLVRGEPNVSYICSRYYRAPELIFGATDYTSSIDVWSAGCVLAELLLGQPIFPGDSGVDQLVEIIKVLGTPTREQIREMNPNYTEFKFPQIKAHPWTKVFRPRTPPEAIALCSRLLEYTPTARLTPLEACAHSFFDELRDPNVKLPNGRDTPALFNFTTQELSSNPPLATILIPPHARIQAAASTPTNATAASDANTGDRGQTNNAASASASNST
PROTOCOL TEXT: GSK3β kinase assay (Ser/Thr 09 peptide Z-lyte FRET);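 further: kinase activity read as coumarin to fluorescein emission ratio, 11-point threefold dilutions from 10 µM to 0.0003 µM in duplicate, unphosphorylated and phosphorylated peptide as 0% and 100% controls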
ASSAY CONTEXT: 46 μM ATP, 1 h room temperature
Form field - Quantity: EC50; Unit: nM; Scale: log10

According to the records, this molecule O=C(CN1CCOCC1)Nc1cc2cc(-c3cncs3)ccc2cn1 displays log10 EC50 of 2.34

According to the records, this molecule O=C(Nc1cc2cc(-c3cnn4c3CN(CCF)CC4)ccc2cn1)C1CCC(F)(F)CC1 displays log10 EC50 of 1.79

According to the records, this molecule CN1CCN(CC(=O)Nc2cc3cc(-c4cnn(C)c4)cc(F)c3cn2)CC1 displays log10 EC50 of 1.79

According to the records, this molecule CC(C)CN1CCC(C(=O)Nc2cc3cc(-c4cn[nH]c4)ccc3cn2)CC1 displays log10 EC50 of 1.69

According to the records, this molecule Cn1cc(-c2ccc3cnc(NC(=O)C4CCN(CC(C)(C)F)CC4)cc3c2)cn1 displays log10 EC50 of 1.46

According to the records, this molecule C[C@@H](C(=O)Nc1cc2cc(-c3cnn(C)c3)ccc2cn1)N1CCCC1 displays log10 EC50 of 1.48

According to the records, this molecule Cn1cncc1-c1ccc2cnc(NC(=O)C3(F)CCCCC3)cc2c1 displays log10 EC50 of 2.62

According to the records, this molecule O=C(Nc1cc2cc(-c3cnc4n3CCNC4)ccc2cn1)[C@@H]1CCCNC1 displays log10 EC50 of 3.04

According to the records, this molecule Cn1cc(-c2ccc3cnc(NC(=O)C4CCN(C5CC5)CC4)cc3c2)cn1 displays log10 EC50 of 1.49

According to the records, this molecule CNc1ncc(-c2ccc3cnc(NC(=O)C4CCNCC4)cc3c2)s1 displays log10 EC50 of 1.99

According to the records, this molecule CC(C)CN1CCC(C(=O)Nc2cc3cc(-c4cnn(C)c4)cc(F)c3cn2)CC1 displays log10 EC50 of 1.75

According to the records, this molecule Cc1ncc(-c2ccc3cnc(NC(=O)[C@@H]4CCCO4)cc3c2)n1C displays log10 EC50 of 2.42
